TESTED_SYSTEM: SHP2-C SH2;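 note: peptide library displayed on the E. coli surface as eCPX fusions, selected cells deep-sequenced, score is each peptide's frequency after selection divided by its frequency in the input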
ASSAY_OVERVIEW: SH2 binding enrichment of the phosphorylated peptide, bacterial display (enrichment ratio); higher = better substrate or ligand; peptides without Tyr show the background
RECORDED_ENDPOINT: SH2 binding enrichment

FPILNYKDIRK [CFAP221_Y798_M795I] ... 0.696
PRPAGYPSMVS [CACNA1C_Y1832_T1835M] ... 0.507
AKIDGYITSYR ... 0.739
LREKVYASLEA [RXRA_Y397] ... 1.28
GGGMFYPLDLF ... 0.749

(A) NWGKKYPTCNS [PTPRZ1_Y53]
(B) RPQDGYRIVQH [PTPRT_Y1329]
(C) LVGTPYWMAPE [PAK5_Y608]
(D) LYSINYLHFGD [KDM4C_Y201_E206D]
(E) TIMTNYNPNYC [ALK_Y1092_D1091N]
## Input // ranking: key=SH2 binding enrichment, reverse=True Provide the ranking by listing each label in its place in the requested order.
## Output D, C, A, E, B
(D: 2.45, C: 1.58, A: 1.03, E: 0.715, B: 0.476)

(1) DYYDLYGGEKL [PTPN11_Y66_F71L]
(2) EYLQKYKGFKI [SYNE1_Y6953]
## Input # return whichever of 1 and 2 has the smaller SH2 binding enrichment Select an item and report its label.
## Output 2

(P) VEDHYYEGGIG [TKT_Y564]
(Q) LFMGDYVDRGF [PPP2CA_Y86_YF]
## Input # return whichever of P and Q has the smaller SH2 binding enrichment Select an item and report its label.
## Output Q
(Q: 0.577, P: 0.833)

* * *

TESTED_SYSTEM: EPHB1 (UniProt P54762)
Sequence (P54762 whole entry, looked up): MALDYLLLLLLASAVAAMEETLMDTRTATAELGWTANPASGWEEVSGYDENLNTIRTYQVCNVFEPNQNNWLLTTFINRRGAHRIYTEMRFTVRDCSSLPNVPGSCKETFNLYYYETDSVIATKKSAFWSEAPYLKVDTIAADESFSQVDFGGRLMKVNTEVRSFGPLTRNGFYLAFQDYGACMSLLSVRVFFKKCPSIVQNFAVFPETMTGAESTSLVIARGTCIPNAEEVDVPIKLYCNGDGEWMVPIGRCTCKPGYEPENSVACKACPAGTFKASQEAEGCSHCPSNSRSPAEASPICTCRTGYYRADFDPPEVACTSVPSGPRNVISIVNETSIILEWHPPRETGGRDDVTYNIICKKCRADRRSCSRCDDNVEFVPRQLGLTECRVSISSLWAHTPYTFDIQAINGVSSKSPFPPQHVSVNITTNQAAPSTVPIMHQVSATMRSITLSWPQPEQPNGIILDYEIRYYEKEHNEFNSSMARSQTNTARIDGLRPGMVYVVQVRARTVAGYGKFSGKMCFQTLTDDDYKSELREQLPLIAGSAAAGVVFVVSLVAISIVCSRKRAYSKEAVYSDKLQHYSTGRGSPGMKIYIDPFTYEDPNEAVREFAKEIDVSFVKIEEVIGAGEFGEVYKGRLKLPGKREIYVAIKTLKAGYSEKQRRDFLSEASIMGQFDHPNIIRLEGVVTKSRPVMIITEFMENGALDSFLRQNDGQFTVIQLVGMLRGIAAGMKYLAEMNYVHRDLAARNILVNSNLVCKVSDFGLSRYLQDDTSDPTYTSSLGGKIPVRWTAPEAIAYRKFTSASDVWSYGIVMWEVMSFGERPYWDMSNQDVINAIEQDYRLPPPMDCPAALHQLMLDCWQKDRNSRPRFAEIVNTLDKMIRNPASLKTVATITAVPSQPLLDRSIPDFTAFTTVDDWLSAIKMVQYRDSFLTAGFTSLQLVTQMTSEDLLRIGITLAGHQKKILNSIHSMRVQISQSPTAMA
ASSAY_OVERVIEW: phosphorylation enrichment, bacterial display (enrichment ratio); higher = better substrate or ligand; peptides without Tyr show the background
Listed sequences paired with reported phosphorylation enrichment
// print number alone

The following sequences have reported results that may help.
YPLELYERVRI [PRKCG_Y312_M317I] ... 1.9
TLMNAYSSRCH [KIF11_Y231_S235C] ... 0.602
LITTPYIGFLG [KCNQ1_Y267_L266P] ... 0.449
APGNAYGDAGF [SYP_Y250_D248N_YF] ... 0.351
SREALYNEMDP [CACNA1A_Y794] ... 0.735

## Input Query (sequence): AMIADYMFWLG [SPATA16_Y290] ; field requested: phosphorylation enrichment
## Output 7.43

## Input Item: SRASFYRKGGC [ALK_Y1283_Y1278S_YF]
## Output 0.431

## Input Item: NHYKIYNLYAE [PTEN_Y68_C71Y]
## Output 0.455

## Input Item: CPFNLYAAQLS [HGD_Y40_E42A_YF]
## Output 1.79

## Input Item: RGFDTYFGYLL [ARSB_Y165]
## Output 5.14

## Input Item: LIDSSYLTRTA [GREB1L_Y1063]
## Output 0.43

## Input Item: LWPIWYRCRRP [MRGPRX1_Y130_H133R]
## Output 0.58

## Input Item: QGLRLYRTHLA [BTK_Y617_P619T]
## Output 0.359

## Input Item: FETSHYLASPD [CTNND2_Y1217_P1218L_YF]
## Output 0.878

## Input Item: VRQQDYKKVEE [HADHA_Y283_V282D]
## Output 0.517

## Input Item: DEIPLYLKGGV [COX7A2_Y44]
## Output 0.566

## Input Item: KNNSIYVLANI [VNN1_Y134_V136L]
## Output 0.793

## Input Item: FSKDIYKRVTG [PANK2_Y405_N404I_YF]
## Output 0.218

## Input Item: ERPIRYLNHQL [CEP152_Y268_Q265P]
## Output 0.421

## Input Item: ILTLKYPIKHG [ACTA1_Y71_E74K]
## Output 0.426

## Input Item: YRQLPYCPSVE [CTNND2_Y508_Q507P]
## Output 0.692

## Input Item: RRFLFYFSFLL [PTEN_Y177_V175L_YF]
## Output 0.493

* * *

TESTED_SYSTEM: Hck (UniProt P08631)
Sequence (P08631 whole entry, looked up): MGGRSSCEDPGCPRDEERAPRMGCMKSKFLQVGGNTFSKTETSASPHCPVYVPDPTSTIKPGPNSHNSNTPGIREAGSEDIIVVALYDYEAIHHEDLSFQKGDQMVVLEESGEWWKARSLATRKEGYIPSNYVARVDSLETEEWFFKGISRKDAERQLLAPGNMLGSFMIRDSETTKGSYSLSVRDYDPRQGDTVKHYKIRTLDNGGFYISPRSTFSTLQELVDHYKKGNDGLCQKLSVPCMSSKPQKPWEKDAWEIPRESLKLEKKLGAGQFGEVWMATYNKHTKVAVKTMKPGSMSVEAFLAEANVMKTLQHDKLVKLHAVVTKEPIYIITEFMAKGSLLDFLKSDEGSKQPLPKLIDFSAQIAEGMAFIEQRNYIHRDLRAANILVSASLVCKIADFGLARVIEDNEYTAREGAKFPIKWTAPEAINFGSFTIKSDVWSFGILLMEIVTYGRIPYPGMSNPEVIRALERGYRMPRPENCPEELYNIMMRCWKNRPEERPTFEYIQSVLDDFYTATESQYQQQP
ASSAY_OVERVIEW: phosphorylation enrichment, bacterial display (enrichment ratio); higher = better substrate or ligand; peptides without Tyr show the background
RECORDED_ENDPOINT: phosphorylation enrichment
// print number alone

The following sequences have reported results that may help.
DEDEEYEYMNR [ERBB3_Y1197] ... 0.567
IGNGYYFRVFS [MYBPC3_Y1136] ... 0.557
VNKGGYFSVNL [C3orf33_Y164_S160N] ... 0.411
ILTLKYPIKHG [ACTA1_Y71_E74K] ... 0.349
LVVFEYMRHGD [NTRK1_Y591_M587V] ... 0.475

## Input Query (sequence): NKVQFYIPDMN [NCR1_Y84_K82Q] ; field requested: phosphorylation enrichment
## Output 0.532

## Input Item: LSVEIHDRREY [ITGB7_Y753_Y753H]
## Output 0.463

## Input Item: FLRKEYGGLNV [CBR3_Y81]
## Output 0.404

## Input Item: SDFSSYARTSI [TERT_Y949_YF]
## Output 0.453

## Input Item: LWPIWYRCHRP [MRGPRX1_Y130]
## Output 0.699

## Input Item: THQKSYQPGRK [CEFIP_Y210_N208K]
## Output 0.52

## Input Item: YDEYRYRSVIK [CFTR_Y517]
## Output 1.14

## Input Item: DRLASYPDKVR [KRT14_Y129_L130P]
## Output 0.387

## Input Item: EACRSYSHVVL [CHST6_Y168]
## Output 0.548

## Input Item: LGKLTYPVGFW [NTHL1_Y177_I176T]
## Output 1.23

## Input Item: SLQAHYDTPRS [DOK7_Y405_R402Q]
## Output 0.37

## Input Item: EFLHKYKGFKI [SYNE1_Y6953_Q6951H_YF]
## Output 0.435

## Input Item: WQLEIYRASRP [ERCC4_Y594_R589W]
## Output 0.491

## Input Item: GSSEDYLHMVH [NIPBL_Y247]
## Output 0.449

* * *

TESTED_SYSTEM: Fyn (UniProt P06241)
Sequence (P06241 whole entry, looked up): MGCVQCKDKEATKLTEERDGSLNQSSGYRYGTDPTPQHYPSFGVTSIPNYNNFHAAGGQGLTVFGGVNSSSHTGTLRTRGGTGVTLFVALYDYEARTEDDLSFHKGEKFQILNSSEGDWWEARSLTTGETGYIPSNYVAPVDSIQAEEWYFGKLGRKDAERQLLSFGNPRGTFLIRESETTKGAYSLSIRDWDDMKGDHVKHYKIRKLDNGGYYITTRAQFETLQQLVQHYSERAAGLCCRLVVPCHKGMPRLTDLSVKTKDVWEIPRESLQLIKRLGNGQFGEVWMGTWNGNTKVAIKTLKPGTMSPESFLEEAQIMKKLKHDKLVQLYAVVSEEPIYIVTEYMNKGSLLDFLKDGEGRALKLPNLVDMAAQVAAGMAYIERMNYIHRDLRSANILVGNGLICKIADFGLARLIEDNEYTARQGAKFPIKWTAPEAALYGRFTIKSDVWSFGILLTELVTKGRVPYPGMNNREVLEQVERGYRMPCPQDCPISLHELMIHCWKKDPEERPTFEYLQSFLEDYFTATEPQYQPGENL
ASSAY_OVERVIEW: phosphorylation enrichment, bacterial display (enrichment ratio); higher = better substrate or ligand; peptides without Tyr show the background
RECORDED_ENDPOINT: phosphorylation enrichment
// print number alone

RNAAEYLLSSG [ABL1_Y139] ... 0.35
RRFLFYFSFLL [PTEN_Y177_V175L_YF] ... 0.567
GIVKAYFVHAR [AIPL1_Y267_R270H_YF] ... 0.449
SILAVYSKDNY [PANK2_Y400] ... 0.756
DRPASYLEKVR [KRT13_Y118_L115P] ... 0.299
ILGTYYETGSI [PAX2_Y73_R71T] ... 4.14
GSPAPYRRRKR [MBD1_Y403_P401A] ... 0.502
QWPGPYDRPGA [HNRNPH2_Y210_R206W] ... 0.636

## Input Recall the recorded phosphorylation enrichment for MSRDIYSTDYY [NTRK1_Y676] with Fyn (UniProt P06241) and state it.
## Output 4.75

## Input Item: TGNPAYRSFSN [IL4R_Y497_A492T]
## Output 0.369

## Input Item: RTLSEYARPHV [RERE_Y1259]
## Output 0.668

## Input Item: SFKNKYGMVAQ [APOB_Y276_YF]
## Output 0.353

* * *

Listed sequences paired with reported phosphorylation enrichment
TESTED_SYSTEM: FGFR3 (UniProt P22607)
Sequence (P22607 whole entry, looked up): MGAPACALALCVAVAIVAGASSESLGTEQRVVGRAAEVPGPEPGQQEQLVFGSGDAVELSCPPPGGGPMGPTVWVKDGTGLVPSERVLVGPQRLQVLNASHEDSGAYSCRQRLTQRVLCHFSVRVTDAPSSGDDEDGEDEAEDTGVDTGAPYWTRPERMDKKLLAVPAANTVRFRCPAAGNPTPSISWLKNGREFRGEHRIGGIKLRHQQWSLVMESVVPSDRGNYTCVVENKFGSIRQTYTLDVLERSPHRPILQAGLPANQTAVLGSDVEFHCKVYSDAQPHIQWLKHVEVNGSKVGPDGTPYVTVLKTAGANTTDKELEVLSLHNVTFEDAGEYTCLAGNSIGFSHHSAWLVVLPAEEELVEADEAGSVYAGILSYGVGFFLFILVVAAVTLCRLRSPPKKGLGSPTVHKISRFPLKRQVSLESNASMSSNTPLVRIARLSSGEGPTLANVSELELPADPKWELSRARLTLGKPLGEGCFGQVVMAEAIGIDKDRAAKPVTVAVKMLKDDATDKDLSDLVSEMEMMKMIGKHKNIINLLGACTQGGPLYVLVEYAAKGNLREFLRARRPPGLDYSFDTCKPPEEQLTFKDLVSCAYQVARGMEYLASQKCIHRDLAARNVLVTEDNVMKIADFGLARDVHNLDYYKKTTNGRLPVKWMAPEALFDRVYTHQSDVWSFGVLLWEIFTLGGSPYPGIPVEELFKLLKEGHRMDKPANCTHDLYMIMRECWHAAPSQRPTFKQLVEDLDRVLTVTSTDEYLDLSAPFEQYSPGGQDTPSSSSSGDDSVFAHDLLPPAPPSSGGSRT
ASSAY_OVERVIEW: phosphorylation enrichment, bacterial display (enrichment ratio); higher = better substrate or ligand; peptides without Tyr show the background
// print number alone

The following sequences have reported results that may help.
PGVNFYFQVSA ... 1
IRGNMYYENSY [EGFR_Y112] ... 0.665
THQKSYQPGRK [CEFIP_Y210_N208K] ... 0.362
DRLAVYIDRVS [LMNA_Y45_R50S] ... 0.638
LLRFLYFFVCS [SLC34A2_Y109_G106R] ... 1.22
PESTLYRKFTT [NTRK1_Y701_I699T] ... 0.644
IKETHYMVDRC ... 0.579
MWGSDYVQLSR [MAP3K4_Y582] ... 4.02
VKMLEYLGKDV [CASP5_Y74] ... 0.453
YVFSFYHAFSG [ACTN4_Y265_S262F] ... 1.13

## Input Query (sequence): PSELYYSKIGP [SMG1_Y2254] ; field requested: phosphorylation enrichment
## Output 8.9

## Input Item: SEPDLYYDPRG [PKP1_Y160_C161Y]
## Output 8.64

## Input Item: EEDPEYKKKFR [FAM161A_Y278]
## Output 0.544

## Input Item: CPEARYNRSPI [PTAR1_Y42]
## Output 0.617

## Input Item: KQVEQYMSFHK [HCN1_Y417]
## Output 0.54
